- experimentalSystem: GRABeCB2.0 (Homo sapiens, UniProt P21554)
- testName: cell-based
valueKind: Effect of SR1 pre-treatment on agonist-stimulated GRABeCB2.0 activation

                                   compound    observedmeasurement
0  CCCCC/C=C\C/C=C\C/C=C\C/C=C\CCCC(=O)OCC(O)CO (centres unmarked)                reduced
1         CCCCCCCC/C=C\CCCCCCCC(=O)OC(CO)CO                reduced
2      CCCCC/C=C\C/C=C\CCCCCCCC(=O)OC(CO)CO                reduced
3  CCCCC/C=C\C/C=C\C/C=C\C/C=C\CCCC(=O)OC(CO)CO  significantly reduced

# context switch: different compound, same Effect of SR1 pre-treatment on agonist-stimulated GRABeCB2.0 activation
Would you mind telling me what Effect of SR1 pre-treatment on agonist-stimulated GRABeCB2.0 activation value was observed for CCCCCCC(C)(C)c1ccc([C@@H]2C[C@H](O)CC[C@H]2CCCO)c(O)c1 ? significantly reduced

====

- experimentalSystem: UniProt:P21554
- testName: cell-based
valueKind: Antagonism of agonist response by SR1 100 nM

>>> df
                                   compound  experimentalsystem   observedmeasurement
0  CCCCC/C=C\C/C=C\CCCCCCCC(=O)OC(CO)CO [2-LG, 2-linoleoylglycerol]      UniProt:P21554   partial antagonized
1  CCCCC/C=C\C/C=C\C/C=C\C/C=C\CCCC(=O)OCC(O)CO (centres unmarked) [1-AG, 1-arachidonoylglycerol]      UniProt:P21554  strongly antagonized
2  CCCCCCC(C)(C)c1ccc([C@@H]2C[C@H](O)CC[C@H]2CCCO)c(O)c1 [CP]      UniProt:P21554   partial antagonized
3  CCCCCCCC/C=C\CCCCCCCC(=O)OC(CO)CO [2-OG, 2-oleoylglycerol]      UniProt:P21554  strongly antagonized

Find Antagonism of agonist response by SR1 100 nM (UniProt:P21554) for the entry CCCCC/C=C\C/C=C\C/C=C\C/C=C\CCCC(=O)OC(CO)CO [2-AG, 2-arachidonoylglycerol] partial antagonized

====

- experimentalSystem: GRABeCB2.0 (Homo sapiens)
- testName: cell-based
valueKind: EC50 (nM)
Give just the number in nM; leave the unit off.

                                   compound  valuekind  observedmeasurement
0         CCCCCCCC/C=C\CCCCCCCC(=O)OC(CO)CO       EC50                 1000
1  CCCCC/C=C\C/C=C\C/C=C\C/C=C\CCCC(=O)OCC(O)CO (stereo not drawn)       EC50                 1800

# context switch: different compound, same EC50
Would you mind telling me what EC50 value was observed for CCCCC/C=C\C/C=C\CCCCCCCC(=O)OC(CO)CO ? 1500
